target: P dimers of VA387 (GII.4) binding to saliva HBGAs (Norovirus GII.4 (Human calicivirus NLV/VA98387/1998), UniProt Q913Z3); assay: Saliva-based NoV/HBGA blocking assay; design: species or system Norovirus VA387 (GII.4); conditions: blocking assay, type A saliva as HBGA source; mean ± standard deviation; read-out: IC50 Saliva A
Sequence (Q913Z3 214-539): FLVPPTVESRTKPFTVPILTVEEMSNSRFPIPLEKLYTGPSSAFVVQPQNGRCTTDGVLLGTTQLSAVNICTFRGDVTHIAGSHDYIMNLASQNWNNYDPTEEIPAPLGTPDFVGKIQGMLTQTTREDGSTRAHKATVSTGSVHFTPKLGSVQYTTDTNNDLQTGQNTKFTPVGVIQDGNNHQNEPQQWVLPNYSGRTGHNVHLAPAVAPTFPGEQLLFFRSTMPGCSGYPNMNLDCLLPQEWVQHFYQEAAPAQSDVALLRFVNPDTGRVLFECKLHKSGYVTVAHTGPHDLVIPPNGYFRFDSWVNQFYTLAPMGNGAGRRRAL
The molecules listed here are annotated with their pIC50.
Keep in mind that pIC50 stands for -log10 of concentration in molar terms.

Consider the worked cases shown below.
molecule	metric_name	data_value
Cc1noc2c1C1(C)CCC3C(CC=C4CC(O)CCC43C)C1C2 (stereo not drawn) [Compound 18]	pIC50	4.47
Nc1ccc2c(c1)C1C=CCC1C(c1ccc([N+](=O)[O-])cc1)N2 (stereo not drawn) [Compound 6]	pIC50	4.90
CC(=O)OCC(=O)C1CCC2C3CC=C4CC(O)CCC4(C)C3CCC12C (stereo not drawn) [Compound 16]	pIC50	4.51

## Input I would be grateful if you could share the reported pIC50 for CC12CCC3C(CCC4CC(=O)CCC43C)C1CCC2O (stereo not drawn) [Compound 19] .
## Output 4.43

## Input I would be grateful if you could share the reported pIC50 for O=C(O)c1ccc(C2Nc3c(F)cccc3C3C=CCC32)cc1 (stereo not drawn) [Compound 20] .
## Output 4.42

## Input I would be grateful if you could share the reported pIC50 for CC1(C)CC(=O)C2=C(C1)c1c(ccc3ccccc13)NC2 [Compound 8] .
## Output 4.85
